Experiment: protein stability index of a GFP-peptide fusion (GPS, HEK-293T) (PSI 1-6); higher = more stable;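 further: 24-mer peptide tiles fused after GFP, lentivirally expressed, FACS-sorted into six equal bins by GFP/DsRed ratio, decoded by Illumina sequencing, PSI is the read-weighted mean bin number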
Conditions: treatment: DMSO; c terminus: a fixed tail appended
Could you label it fulfilled if measured protein stability index is 3 or higher, and not fulfilled otherwise?

Would you please look over these solved cases?
[[record]]
polymer_sequence = "SDSDSELSSSEGLEPGSADPLANG [PSD2]"
class_label = "fulfilled"

[[record]]
polymer_sequence = "AIIRTPPKSPATPKQLRLINQPLP [MAP2]"
class_label = "fulfilled"

[[record]]
polymer_sequence = "DVGRYIDHYAAIKKAWDDLKKYLE [FBXO3]"
class_label = "not fulfilled"


Next, consider the following sequence.
Reported protein stability index reaches at least 3 for GEQVGRGPGFHAGTSALWRHLRSA [ZBED3] ?
fulfilled
